- Test system: KM12 colon
- Test: NCI-60 one-dose screen, 48 h (100 = growth as untreated, 0 = no growth, -100 = all killed)
- Particulars: 10 µM unless noted
This is part of a sample that, as a whole, favours compounds with a hit. Of some 83,000 tested, about 20% had one in any assay. Activity calls are given as the source filed them. Rule for the calls: active = growth percent below 10; inactive = the rest.

Compound	growth
COC(=O)c1ccc(C2Nc3ccc(S(=O)(=O)Nc4ccc(C)c(C)c4)cc3C3OCCC23)cc1 (stereo not given)	78.1% (inactive)
COc1cc(CCC[P+](c2ccccc2)(c2ccccc2)c2ccccc2)cc2c1OCO2	10.7% (inactive)
Cc1ccccc1NC(=O)N/C(N)=N/c1nc(-c2cccc([N+](=O)[O-])c2)cs1	31.2% (inactive)
CN(C)CC1C(=O)O[C@H]2[C@H]1CC/C(COC(=O)c1cc3ccccc3[nH]1)=C\CC[C@@]1(C)O[C@@H]21 (stereo not given in full)	6.93% (active)
COc1ccc(-c2ccc3c(c2)sc2nc(-c4ccc(F)cc4)cn23)cc1	64.8% (inactive)
COc1ccccc1NC(=O)N/C(N)=N/c1nc2ccccc2s1	10.4% (inactive)
O=c1c2c3c(sc2nc(N/N=C/c2ccc(Br)cc2)n1Cc1ccccc1)CCCC3	81.9% (inactive)
O=C(NC(CSSCC(NC(=O)c1ccccc1)C(=O)O)C(=O)O)c1ccccc1 (stereo not given)	97.9% (inactive)
Cc1ccc(Nc2nc(N)nc(CSCC(=O)NN)n2)cc1	98.1% (inactive)
NC(N)=Nc1nc2ccccc2n2c1nc1ccccc12	33.6% (inactive)

###

- Tested on: HOP-92 NSCLC
- Test: NCI-60 one-dose screen, 48 h (100 = growth as untreated, 0 = no growth, -100 = all killed)
- Particulars: 10 µM unless noted
Compounds without any hit were thinned out: in the full panel of roughly 83,000, 20% have a hit.

Compound	growth, %
O=C1/C(=C/c2ccc(F)cc2)C=C(c2ccccc2)N1CCc1ccccc1	7.45
C=C(C)[C@@H]1CC=C2c3sc(-c4ccc(C)cc4)nc3C[C@@H](C)[C@]2(C)C1	103
COc1ccc(-c2csc(C3=C(O)CN(CCCN4CCCC4=O)C3=N)n2)cc1OC	62.8
Cc1ccc(-c2cc(-c3ccccc3C)[nH]c(=O)c2C#N)s1	54
COC(=O)[C@]12CC[C@@H](C)[C@H](C)[C@@H]1C1=CC[C@@H]3[C@@]4(C)C(C=O)=C[C@@](C)(COC(C)=O)[C@@H]4C(=O)C[C@@]3(C)[C@]1(C)CC2	47.7
CCCCC1CCCCN1C(=O)OCC (stereo not drawn)	88.5
CC1(C)CC[C@]2(C(=O)N3CCOCC3)CC[C@]3(C)C(=CC[C@@H]4[C@@]5(C)CC[C@H](OC(=O)c6cccnc6)C(C)(C)[C@@H]5CC[C@]43C)[C@@H]2C1	66.4
COc1cc(-c2nn(-c3ccccc3)cc2-c2ccnc(NCCNS(=O)(=O)c3ccc(Cl)cc3)n2)ccc1Cl	48.8

###

- System: OVCAR-3 ovarian
- Test: NCI-60 one-dose screen, 48 h
- Particulars: 10 µM unless noted
Compounds without any hit were thinned out: in the full panel of roughly 83,000, 20% have a hit. The source made the active and inactive calls. Rule for the calls: active = growth percent below 10; inactive = the rest.
Outcomes: true = active, false = inactive

Compound	Target of assay	Group label
CN1CCN(CC(=O)Nc2nc(-c3cccc(NS(=O)(=O)c4cccc5c(N(C)C)cccc45)c3)cs2)CC1	OVCAR-3 ovarian	false
NC(=S)N/N=C/Cc1ccccc1	OVCAR-3 ovarian	false
CCN(CC)S(=O)(=O)c1cccc(-c2ccc3c(NC(=O)C4CC4)n[nH]c3c2)c1	OVCAR-3 ovarian	false
Cc1ccc(-c2cc(-c3cccnc3)[nH]c(=O)c2C#N)cc1	OVCAR-3 ovarian	false
C=C1C(=O)O[C@H]2[C@H]1CC/C(COC(=O)C(=O)c1c[nH]c3ccc(OC)cc13)=C\CC[C@@]1(C)O[C@@H]21	OVCAR-3 ovarian	true
O=C(CSc1nccc(Nc2ccc(S(=O)(=O)Nc3nccs3)cc2)n1)c1ccc(F)cc1	OVCAR-3 ovarian	false
CCCCCCCOc1c(OC)cc(C2CC(=O)Nc3c2c(C)nn3-c2nc3ccccc3[nH]2)cc1OC (stereo not given)	OVCAR-3 ovarian	true
CCOC(=O)c1ccc(N2NC(=O)/C(=C/c3ccc([N+](=O)[O-])o3)C2=O)cc1	OVCAR-3 ovarian	false
CCCCCCCCCCCC(c1ccccc1)[N+](C)(C)C (stereo not given)	OVCAR-3 ovarian	false
CN(C)c1ccc(-c2cc(-c3ccc(Nc4nc(Nc5ccc(Cl)cc5)nc(Nc5ccc(Cl)cc5)n4)cc3)no2)cc1	OVCAR-3 ovarian	false
